- Tested on: Escherichia coli TOP10;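 further: peptides expressed intracellularly from a pBAD plasmid library in pooled LB shake-flask culture, induced with 0.3% L-arabinose, DNA abundance read by NGS, three biological replicates, DESeq2 with apeglm shrinkage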
- protocol_notes: shrunken log2 fold change of peptide-encoding DNA abundance (4.5 h post-induction vs induction); higher = less antimicrobial activity (less host growth inhibition)
- recorded_conditions: time post-induction: 4.5 h; library: site-saturation at positions 5, 18, 19, 20
In this scheme, each record receives a class according to its shrunken log2 fold change; the ranges are bottom range: < -0.2; center range: ≥ -0.2 and < 0.05; top range: ≥ 0.05

INSERT INTO measurements (chain, qualitative_label) VALUES
  ('RRIRIRPPRLPRPRPRPDIYPRP', 'bottom range'),
  ('RRIRDRPPRLPRPRPRPYYPPRP', 'bottom range'),
  ('RRIRMRPPRLPRPRPRPLVYPRP', 'top range'),
  ('RRIRARPPRLPRPRPRPELPPRP', 'top range'),
  ('RRIRGRPPRLPRPRPRPKKKPRP', 'top range'),
  ('RRIRCRPPRLPRPRPRPSCGPRP', 'center range'),
  ('RRIRVRPPRLPRPRPRPKFYPRP', 'bottom range'),
  ('RRIRIRPPRLPRPRPRPDMIPRP', 'center range'),
  ('RRIRHRPPRLPRPRPRPEIPPRP', 'center range'),
  ('RRIRNRPPRLPRPRPRPHHQPRP', 'bottom range'),
  ('RRIRDRPPRLPRPRPRPRVKPRP', 'top range'),
  ('RRIRPRPPRLPRPRPRPWSQPRP', 'center range'),
  ('RRIRRRPPRLPRPRPRPIMPPRP', 'center range'),
  ('RRIRCRPPRLPRPRPRPEMFPRP', 'center range'),
  ('RRIRYRPPRLPRPRPRPLALPRP', 'bottom range');

Reference source for all entries: the supplement of paper PMC9112550
